Listed below: IC50 values for each entry.
Biological target: human PHD2 (PHD2181-417) (Homo sapiens)
Construct: Smt (SUMO) tag (cleaved yes); made in house; host or cells: E. coli BL21 (pBAD vector)
Sequence (Q9GZT9 181-417): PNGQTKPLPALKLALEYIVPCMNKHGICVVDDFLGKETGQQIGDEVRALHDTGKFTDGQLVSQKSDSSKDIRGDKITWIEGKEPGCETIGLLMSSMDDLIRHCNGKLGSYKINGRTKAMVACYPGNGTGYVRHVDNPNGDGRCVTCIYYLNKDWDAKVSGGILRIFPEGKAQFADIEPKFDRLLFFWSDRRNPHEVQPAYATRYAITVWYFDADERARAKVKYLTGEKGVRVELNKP
Assay: PHD enzymatic assay ([14C]-succinic acid production)
Assay type: biochemical
Details: PHD2181-417, HIF-1α peptide 10 μM, average of results; read-out: Enzyme pIC50 (converted)
Reply numerically in nM, unit not repeated.

> print(dat)
                            chemical.string  result.type  quantitative.result
1  CSc1cc2c(=O)[nH]c(-n3cc(C(=O)O)cn3)nc2cc1Cl         IC50                 39.8
2  COc1ccc(Oc2ccc3nc(-n4cc(C(=O)O)cn4)[nH]c(=O)c3c2)cc1         IC50                   20
3  O=C(O)c1cnn(-c2nc3ccc(Oc4cccc5c4CCCC5)cc3c(=O)[nH]2)c1         IC50                 25.1
4  CC(C)c1cccc2c(=O)[nH]c(-n3cc(C(=O)O)cn3)nc12         IC50                  251
5  O=C(O)c1cnn(-c2nc3cc(S(=O)(=O)c4ccc(Cl)cc4)ccc3c(=O)[nH]2)c1         IC50                 63.1

Task: Any idea what its IC50 is? The compound is O=C(O)c1cnn(-c2nc3ccc(C4CC4)cc3c(=O)[nH]2)c1
Result: 25.1

Task: How about CC(C)Oc1ccc2nc(-n3cc(C(=O)O)cn3)[nH]c(=O)c2c1 ?
Result: 31.6

Task: How about CCc1ccc2nc(-n3cc(C(=O)O)cn3)[nH]c(=O)c2c1 ?
Result: 39.8

The measured values listed here are drawn from patent US8937078B2.
